Experiment: Single-dose pharmacokinetics in rats
Type: in vivo
Conditions: male, Sprague-Dawley, rat, plasma, po, oral solution, read-out: Rat oral bioavailability when dosed as solution
Measured bioavailability accompanies every entry in the list below.
READOUT LABEL: bioavailability

- CC(C)[C@@H](NC(=O)c1cccc(S(N)(=O)=O)c1)C(=O)N1CC[C@](O)(c2ccc(Cl)cc2)C(C)(C)C1: 23%
- CC(C)[C@@H](NC(=O)[C@@H]1CCC(F)(F)C1)C(=O)N1CC[C@](O)(c2ccc(Cl)cc2)[C@@](C)(O)C1: 43%
- CC(C)[C@@H](NC(=O)C1CCCC1)C(=O)N1CC[C@](O)(c2ccc(Cl)cc2)C(C)(C)C1: 8%
- CC(C)[C@@H](NC(=O)c1cccc(C(=O)O)c1)C(=O)N1CC[C@](O)(c2ccc(Cl)cc2)C(C)(C)C1: 9%

====

Experiment: Protein binding, human
Assay type: in vitro ADME
READOUT LABEL: fraction unbound

* CC(C)[C@@H](NC(=O)[C@@H]1CCC(F)(F)C1)C(=O)N1CC[C@](O)(c2ccc(Cl)cc2)[C@@](C)(O)C1 | 0.32

====

Molecular target: hERG potassium channel (Homo sapiens)
Construct: expressed in transfected cells
Sequence (Q12809 whole entry): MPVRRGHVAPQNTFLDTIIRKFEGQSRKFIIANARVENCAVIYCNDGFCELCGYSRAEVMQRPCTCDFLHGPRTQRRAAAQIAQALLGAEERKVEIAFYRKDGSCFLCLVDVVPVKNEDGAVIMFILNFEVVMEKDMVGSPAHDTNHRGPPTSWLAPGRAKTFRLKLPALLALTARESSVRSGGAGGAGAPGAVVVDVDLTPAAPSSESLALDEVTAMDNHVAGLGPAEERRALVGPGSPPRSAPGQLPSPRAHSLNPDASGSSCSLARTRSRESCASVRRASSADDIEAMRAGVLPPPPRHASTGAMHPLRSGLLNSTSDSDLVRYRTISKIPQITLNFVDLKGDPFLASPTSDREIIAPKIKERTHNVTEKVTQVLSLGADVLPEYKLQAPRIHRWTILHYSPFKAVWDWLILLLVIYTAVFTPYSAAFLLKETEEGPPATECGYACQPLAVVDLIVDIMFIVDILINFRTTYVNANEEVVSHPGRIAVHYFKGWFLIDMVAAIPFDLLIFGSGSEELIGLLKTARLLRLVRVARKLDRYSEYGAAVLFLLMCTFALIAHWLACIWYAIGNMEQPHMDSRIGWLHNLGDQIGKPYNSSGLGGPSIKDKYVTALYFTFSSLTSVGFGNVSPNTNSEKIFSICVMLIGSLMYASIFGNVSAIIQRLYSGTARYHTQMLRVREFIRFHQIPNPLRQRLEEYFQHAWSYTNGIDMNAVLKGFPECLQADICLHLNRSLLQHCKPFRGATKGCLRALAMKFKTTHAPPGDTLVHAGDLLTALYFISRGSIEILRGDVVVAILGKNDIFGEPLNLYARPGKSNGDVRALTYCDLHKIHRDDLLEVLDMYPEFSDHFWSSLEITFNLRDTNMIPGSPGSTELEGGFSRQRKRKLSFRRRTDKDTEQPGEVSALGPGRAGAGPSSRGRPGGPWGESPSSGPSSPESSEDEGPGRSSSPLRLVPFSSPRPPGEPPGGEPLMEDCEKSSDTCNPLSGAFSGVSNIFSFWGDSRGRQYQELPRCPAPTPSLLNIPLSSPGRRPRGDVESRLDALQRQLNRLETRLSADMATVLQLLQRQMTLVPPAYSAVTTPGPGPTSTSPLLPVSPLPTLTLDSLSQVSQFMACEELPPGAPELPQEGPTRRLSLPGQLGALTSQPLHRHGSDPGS
Assay: hERG patch clamp assay
Type: cell-based
Conditions: HEK-293 cells stably expressing hERG, pH 7.4, HEK-293, protein-free buffer, read-out: hERG channel, % inh
READOUT LABEL: inhibition at 30 µM (%)

• CC(C)[C@@H](NC(=O)[C@@H]1CCC(F)(F)C1)C(=O)N1CC[C@](O)(c2ccc(Cl)cc2)[C@@](C)(O)C1 = 22

====

Assay: Single-dose pharmacokinetics in rats
Format: in vivo
Conditions: male, Sprague-Dawley, rat, plasma, intravenous
Returns label 1 if the recorded clearance is greater than or equal to 30 mL/min/kg, and label 0 otherwise.

• CC(C)[C@@H](NC(=O)C1CCCC1)C(=O)N1CC[C@](O)(c2ccc(Cl)cc2)C(C)(C)C1 = label 0
• CC(C)[C@@H](NC(=O)[C@@H]1CC[C@@H](O)C1)C(=O)N1CC[C@](O)(c2ccc(Cl)cc2)C(C)(C)C1 = label 0
• CC(C)[C@@H](NC(=O)c1cccc(S(N)(=O)=O)c1)C(=O)N1CC[C@](O)(c2ccc(Cl)cc2)C(C)(C)C1 = label 1
• CC(C)[C@@H](NC(=O)[C@@H]1CCC(F)(F)C1)C(=O)N1CC[C@](O)(c2ccc(Cl)cc2)[C@@](C)(O)C1 = label 0
• CC(C)[C@@H](NC(=O)c1cccc(C(=O)O)c1)C(=O)N1CC[C@](O)(c2ccc(Cl)cc2)C(C)(C)C1 = label 1
